# Target Desc: T1, Antigen CD66c (CEACAM6; Sino Biological, Inc.) (UniProt P40199 35-320)
# T1 construct: Bought antigen coated on the ELISA plate; construct not described; also called CD66c antigen; CECACAM6
# T1 sequence (looked up): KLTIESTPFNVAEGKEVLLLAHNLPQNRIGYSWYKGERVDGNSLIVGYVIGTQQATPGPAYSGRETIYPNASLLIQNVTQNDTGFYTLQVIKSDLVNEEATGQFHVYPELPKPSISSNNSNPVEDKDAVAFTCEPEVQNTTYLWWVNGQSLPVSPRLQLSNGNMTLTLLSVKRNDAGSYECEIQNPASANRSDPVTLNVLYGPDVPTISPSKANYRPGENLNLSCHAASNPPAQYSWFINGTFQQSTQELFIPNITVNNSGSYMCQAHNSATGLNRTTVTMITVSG
# Assay Info: ELISA, coated CEACAM6 100 ng/well, antibody 0.17 ng/ml
Readout Name: OD 450 nm (OD)

>>> value_observed("recombinant humanized anti-CD66c antibody Protein ID 3007 (Vk7 + VH6) (antibody, human IgG1, V domains shown, also called hu 3007; #43) VH: QVQLVQSGAEVKKPGASMKISCKASGYSFTDYTMNWVKQAPGQNLEWIGLINPFHGGTVSNQRFKVKATLTVDVSTNTAYMELSRLRSDDTAVYYCVRGDPVRHYYALAYWGQGTLVTVSS VL: DIQMTQSPSTLSASVGDRVTITCGASENVYGTLNWYQRKPGKAPKLLIYGATNLADGVPSRFSGSGSGTEYTLTISSLQPDDFATYYCQNVLSAPYTFGGGTKLEIK")
0.53
>>> value_observed("anti-CD66c chimeric antibody 8F5 (antibody, human IgG1, V domains shown, also called chimeric 8F5 antibody; chi 8F5) VH: EVQLQQSGPELVKPGASMKISCKASGYSFTDYTMNWVKQSHGKNLEWIGLINPFHGGTVSNQRFKVKATLTVDVSSNTAYMELLSLTSDDSAVYYCVRGDPVRHYYALAYWGQGTSVTVSS VL: DIQMTQSPASLSASVGETVTITCGASENVYGTLNWYQRKQGKSPQLLIYGATNLADGMSSRFSGSGSGRQYSLKISSLHPDDVATYYCQNVLSAPYTFGGGTKLEII")
0.4
>>> value_observed("recombinant humanized anti-CD66c antibody Protein ID 2938 (Vk5 + VH7) (antibody, human IgG1, V domains shown, also called hu 2938) VH: QVQLVQSGAEVKKPGASMKISCKASGYSFTDYTMNWVRQAPGQGLEWIGLINPFHGGTVSNQRFKVKATLTVDVSTNTAYMELSRLRSDDTAVYYCVRGDPVRHYYALAYWGQGTLVTVSS VL: DIQMTQSPSTLSASVGDRVTITCGASENVYGTLAWYQRKPGKAPKLLIYGATNLADGVPSRFSGSGSGREYTLTISSLQPDDFATYYCQNVLSAPYTFGGGTKLEIK")
0.3
